Origin of the recorded values: PubChem BioAssay

target: Pro-neuregulin-1, membrane-bound isoform (Homo sapiens); experiment: NRG1 binders on small-molecule microarrays, primary screen, psychiatric disease protein project, biochemical, small-molecule microarray, fluorescence 635/667 (AID 1075); settings: NRG1 binding, 635 nm fluorescence, higher = more signal;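 note: score combines 667 nm spot fluorescence with signal to noise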
Quick list: composite z-score per entry.
PARAMETER_MEASURED: composite z-score

>>> observed_result("CCCCCN1CC=CC23O[C@@H]4/C=C\\CCCOC(=O)C4[C@H]2C(=O)N(C(CO)C(C)C)[C@@H]3C1=O (some centres undefined)")
-0.583
>>> observed_result("CC(C)C[C@@H]1NC(=O)[C@@H]2C[C@H](C(=O)NCCCCCN)[C@H](c3cccc(OCCO)c3)N2C1=O")
1.4
>>> observed_result("CCCC[C@@H]1C[C@H]1[C@@H](NC(=O)c1ccco1)c1ccc(C(=O)OC)cc1")
0.0609
>>> observed_result("O=C1O[C@H](c2ccccc2)[C@H](c2ccccc2)N2[C@H]1[C@@H](C(=O)NC[C@H](O)c1ccccc1)[C@]1(C(=O)Nc3ccccc31)[C@H]2c1ccc(OCCO)cc1")
1.05
